- tgt: Amine oxidase [flavin-containing] A (Rattus norvegicus, UniProt P21396)
- protocolSummary: Inhibitory activity against monoamine oxidase A (MAO A) from rat brain using a radiometric procedure with [3H]5-HT
parameter: IC50 (µM)

In [3]: df
Out[3]:
                 structuresmiles  unitsofmeasure  experimentalvalue
0  Nc1ccc2c(c1)-c1ccccc1S2(=O)=O              µM                  1

a = CC(=O)Nc1ccc2c(c1)S(=O)(=O)c1ccc(C)cc1C2=O
b = CC(=O)Nc1ccc2c(c1)S(=O)(=O)c1ccccc1C2=O
c = O=CNc1ccc2c(c1)[nH]c1ccccc12
d = CCc1ccc2c(c1)C(=O)c1ccc(NC(C)=O)cc1S2(=O)=O
# input Sort entries by IC50 from minimum to maximum value. Returns: the labels listed in the requested order.
# output d, b, a, c
(d: 0.01 µM, b: 0.06 µM, a: 0.7 µM, c: 1.1 µM)

* * *

- tgt: MAO A (monoamine oxidase A) (Rattus norvegicus)
- Sequence (P21396 whole entry): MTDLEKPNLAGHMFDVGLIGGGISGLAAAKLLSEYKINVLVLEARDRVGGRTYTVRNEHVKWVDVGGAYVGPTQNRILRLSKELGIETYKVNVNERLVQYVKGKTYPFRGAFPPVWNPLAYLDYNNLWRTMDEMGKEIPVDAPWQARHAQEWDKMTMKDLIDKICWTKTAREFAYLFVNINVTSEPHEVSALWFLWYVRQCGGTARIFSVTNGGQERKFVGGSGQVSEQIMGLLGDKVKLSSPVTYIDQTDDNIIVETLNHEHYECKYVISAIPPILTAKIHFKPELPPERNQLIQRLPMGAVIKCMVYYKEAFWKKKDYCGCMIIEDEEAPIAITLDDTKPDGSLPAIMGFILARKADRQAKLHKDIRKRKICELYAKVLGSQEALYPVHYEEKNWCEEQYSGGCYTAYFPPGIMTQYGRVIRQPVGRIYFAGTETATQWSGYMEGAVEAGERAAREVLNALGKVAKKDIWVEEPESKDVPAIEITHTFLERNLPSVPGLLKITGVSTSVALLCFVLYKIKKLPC
- protocolSummary: Inhibitory activity against monoamine oxidase A (MAO A) from rat brain using a radiometric procedure with [3H]- serotonin at 1 uM
- assaySetup: rat brain monoamine oxidase A preparation, probe [3H]-serotonin
parameter: inhibition at 1 µM (%)

                                   molecule           parameter  unitsofmeasure  experimentalvalue
0         CC(=O)Nc1cccc2c1C(=O)c1ccccc1C2=O  inhibition at 1 µM               %                 12
1              CC(=O)Nc1ccc2c(cnn2C(C)=O)c1  inhibition at 1 µM               %                  4
2           CC(=O)Nc1cc2c(ccc3ccccc32)oc1=O  inhibition at 1 µM               %                 10
3  CC(=O)Nc1ccc2c3c([nH]c2c1)CCC(C)(C=O)C3 (stereo unspecified)  inhibition at 1 µM               %                  0

A = CC(=O)Nc1ccc2[nH]ccc2c1
B = CC(=O)Nc1cc2ccccc2oc1=O
# input Sort A and B by inhibition at 1 µM descending and give the first. Return value: the label identifying the chosen record.
# output B

* * *

- tgt: UniProt P21396
- protocolSummary: Inhibitory activity against monoamine oxidase A (MAO A) from rat brain using a radiometric procedure with [3H]5-HT at 10 uM
- assaySetup: rat brain monoamine oxidase A preparation, probe [3H]5-HT
parameter: inhibition (%)

Some solved entries appear below for comparison.
                            structuresmiles   parameter  experimentalvalue
0  O=CN(C=O)c1ccc2c(c1)S(=O)(=O)c1ccccc1C2=O  inhibition                 18
1  CC(=O)Nc1ccc2c3ccccc3n(CCCN3CCN(C)CC3)c2c1  inhibition                 80

I = CC(=O)Nc1ccc2c(c1)COCO2
II = Nc1ccc2[nH]c(=O)c3ccccc3c2c1
III = NC(=O)Nc1ccccc1-c1ccccc1
# input Sort entries by inhibition from minimum to maximum value. Returns: the labels listed in the requested order.
# output II, III, I
(II: 0%, III: 22%, I: 42%)

a = CC(=O)Nc1nc2cc(C)c(C)cc2[nH]1
b = CC(=O)Nc1nc2ccccc2[nH]1
# input Sort a and b by inhibition descending and give the first. Return value: the label identifying the chosen record.
# output a
(a: 50%, b: 8%)

* * *

- tgt: MAO B (monoamine oxidase B) (Rattus norvegicus)
- Sequence (P19643 whole entry): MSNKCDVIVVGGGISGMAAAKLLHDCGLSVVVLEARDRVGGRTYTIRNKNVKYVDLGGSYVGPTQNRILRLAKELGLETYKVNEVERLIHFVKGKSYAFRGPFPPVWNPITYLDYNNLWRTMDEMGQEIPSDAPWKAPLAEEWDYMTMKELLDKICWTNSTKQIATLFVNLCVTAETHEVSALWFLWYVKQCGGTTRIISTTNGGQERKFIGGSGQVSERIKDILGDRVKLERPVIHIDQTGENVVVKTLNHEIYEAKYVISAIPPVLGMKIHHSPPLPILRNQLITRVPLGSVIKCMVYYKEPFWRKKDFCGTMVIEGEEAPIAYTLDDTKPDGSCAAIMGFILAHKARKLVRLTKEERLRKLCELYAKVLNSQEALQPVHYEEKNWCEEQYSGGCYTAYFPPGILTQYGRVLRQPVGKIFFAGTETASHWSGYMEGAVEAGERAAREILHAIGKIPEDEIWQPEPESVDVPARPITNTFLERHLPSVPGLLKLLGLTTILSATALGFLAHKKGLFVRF
- protocolSummary: Inhibitory activity against monoamine oxidase B (MAO B) from rat brain using a radiometric procedure with [14C]phenylethylamine at 10 uM
- assaySetup: rat brain monoamine oxidase B preparation, probe [14C]phenylethylamine
parameter: inhibition at 10 uM (%)

Some solved entries appear below for comparison.
>>> df
                            structuresmiles                                       tgt  experimentalvalue
0  O=CN(C=O)c1ccc2c(c1)S(=O)(=O)c1ccccc1C2=O  MAO B (monoamine oxidase B) (Rattus norvegicus)                  3
1                  NC(=O)Nc1ccccc1-c1ccccc1  MAO B (monoamine oxidase B) (Rattus norvegicus)                 13
2                   CC(=O)Nc1ccc2c(c1)COCO2  MAO B (monoamine oxidase B) (Rattus norvegicus)                 22
3             CC(=O)Nc1nc2cc(C)c(C)cc2[nH]1  MAO B (monoamine oxidase B) (Rattus norvegicus)                 18
4                   CC(=O)Nc1nc2ccccc2[nH]1  MAO B (monoamine oxidase B) (Rattus norvegicus)                 -2

1 = CCCc1ccc2c(c1)S(=O)(=O)c1cc(NC(C)=O)ccc1C2=O
2 = CC(=O)Nc1nc2cc(C)c(C)cc2s1
# input Could you check which of 1 and 2 has a smaller value for inhibition at 10 uM? Return value: the label identifying the chosen record.
# output 1
(1: -7%, 2: 38%)

* * *

- tgt: MAO B (monoamine oxidase B) (Rattus norvegicus, UniProt P19643)
- Sequence (P19643 whole entry): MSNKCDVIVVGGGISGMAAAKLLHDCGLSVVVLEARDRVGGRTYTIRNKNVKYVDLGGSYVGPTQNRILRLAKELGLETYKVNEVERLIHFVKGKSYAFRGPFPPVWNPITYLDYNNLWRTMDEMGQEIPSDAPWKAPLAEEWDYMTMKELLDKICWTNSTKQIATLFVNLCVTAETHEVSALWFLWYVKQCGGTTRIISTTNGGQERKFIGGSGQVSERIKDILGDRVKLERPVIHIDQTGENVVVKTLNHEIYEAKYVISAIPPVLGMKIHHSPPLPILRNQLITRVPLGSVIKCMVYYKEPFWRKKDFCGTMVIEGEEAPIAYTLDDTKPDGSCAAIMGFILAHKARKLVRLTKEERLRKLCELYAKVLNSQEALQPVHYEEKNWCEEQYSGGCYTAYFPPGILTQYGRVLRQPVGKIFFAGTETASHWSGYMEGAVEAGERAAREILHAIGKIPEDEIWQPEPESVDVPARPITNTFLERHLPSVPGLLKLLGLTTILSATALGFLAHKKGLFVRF
- protocolSummary: Inhibitory activity against monoamine oxidase B (MAO B) from rat brain using a radiometric procedure with [14C]phenylethylamine at 1 uM
- assaySetup: rat brain monoamine oxidase B preparation, probe [14C]phenylethylamine
parameter: inhibition at 1 µM (%)

Some solved entries appear below for comparison.
                                  compound                                       tgt  experimentalvalue
0  CC(=O)Nc1ccc2c(c1)C(=O)c1ccccc1S2(=O)=O  MAO B (monoamine oxidase B) (Rattus norvegicus, UniProt P19643)                 39
1                   CC(=O)Nc1ccc2c(c1)CCC2  MAO B (monoamine oxidase B) (Rattus norvegicus, UniProt P19643)                 37
2           CC(=O)Nc1ccc2c(c1)N(C(C)=O)CC2  MAO B (monoamine oxidase B) (Rattus norvegicus, UniProt P19643)                -27
3          CC(=O)NCCc1ccc2c(c1)c1ccccc1n2C  MAO B (monoamine oxidase B) (Rattus norvegicus, UniProt P19643)                  0
4         CC(=O)Nc1ccc2c(c1)c(O)nc1ccccc12  MAO B (monoamine oxidase B) (Rattus norvegicus, UniProt P19643)                  0
5           CC(=O)NCc1ccc2c(c1)c1ccccc1n2C  MAO B (monoamine oxidase B) (Rattus norvegicus, UniProt P19643)                 30
6          NC(=O)Nc1ccc2c(c1)[nH]c1ccccc12  MAO B (monoamine oxidase B) (Rattus norvegicus, UniProt P19643)                 26
7           CC(=O)Nc1ccc2c(O)c3ccccc3nc2c1  MAO B (monoamine oxidase B) (Rattus norvegicus, UniProt P19643)                 21

A = CC(=O)Nc1ccc2c(c1)C(=O)c1ccccc1-2
B = CC(=O)NC(C)c1ccc2c(c1)[nH]c1ccccc12 (stereo not drawn)
# input Sort A and B by inhibition at 1 µM descending and give the first. Return value: the label identifying the chosen record.
# output B
